System: Mycobacterium tuberculosis Erdman (pMV306hsp+LuxG13)
method description: Einf, effect of the drug pair at infinite dose (maximum growth inhibition) (fraction inhibition (0-1)); higher = more potent; extreme values may be limits of the assay
protocol conditions: growth medium: hypoxic dormancy (butyrate + nitrate), then recovery; time point: constant time point
measured endpoint: Einf
Respond using a number only.

[Q] Suppose we examine the compound CC(C)/N=c1\cc2n(-c3ccc(Cl)cc3)c3ccccc3nc-2cc1Nc1ccc(Cl)cc1 [clofazimine] + CC(C)=CCC/C(C)=C/CNCCNC1C2CC3CC(C2)CC1C3 [SQ109] ; what Einf value has been reported?
[A] 0.99

[Q] NNC(=O)c1ccncc1 [isoniazid] + CC(C)=CCC/C(C)=C/CNCCNC1C2CC3CC(C2)CC1C3 [SQ109] ?
[A] 0.994

[Q] Now the compound NC(=O)c1cnccn1 [pyrazinamide] + CC(=O)NC[C@H]1CN(c2ccc(N3CCSCC3)c(F)c2)C(=O)O1
[A] 0.984

[Q] Again, but for CC[C@@H](CO)NCCN[C@@H](CC)CO [ethambutol] + CC(=O)NC[C@H]1CN(c2ccc(N3CCSCC3)c(F)c2)C(=O)O1 [sutezolid]
[A] 0.989

[Q] Try this compound next: CO[C@H]1/C=C/O[C@@]2(C)Oc3c(C)c(O)c4c(O)c(c(/C=N/N5CCN(C6CCCC6)CC5)c(O)c4c3C2=O)NC(=O)/C(C)=C\C=C\[C@H](C)[C@H](O)[C@@H](C)[C@@H](O)[C@@H](C)[C@H](OC(C)=O)[C@@H]1C [rifapentine] + CC(=O)NC[C@H]1CN(c2ccc(N3CCSCC3)c(F)c2)C(=O)O1
[A] 0.974

---

Test system: Mycobacterium tuberculosis Erdman (pMV306hsp+LuxG13)
method description: log2 fractional inhibitory concentration at 50% inhibition (log2 FIC); higher = more antagonistic
protocol conditions: growth medium: cholesterol 0.2 mM (cholesterol-high); time point: terminal time point
Give log2 fractional inhibitory concentration for every item shown.
// no unit string in output, number only

[Q] May I ask what log2 fractional inhibitory concentration has been recorded for CO[C@H]1/C=C/O[C@@]2(C)Oc3c(C)c(O)c4c(O)c(c(/C=N/N5CCN(C)CC5)c(O)c4c3C2=O)NC(=O)/C(C)=C\C=C\[C@H](C)[C@H](O)[C@@H](C)[C@@H](O)[C@@H](C)[C@H](OC(C)=O)[C@@H]1C [rifampicin] + CC(C)=CCC/C(C)=C/CNCCNC1C2CC3CC(C2)CC1C3 [SQ109] ?
[A] 0.286

[Q] And what about the compound CC(C)/N=c1\cc2n(-c3ccc(Cl)cc3)c3ccccc3nc-2cc1Nc1ccc(Cl)cc1 [clofazimine] + CC(=O)NC[C@H]1CN(c2ccc(N3CCSCC3)c(F)c2)C(=O)O1 [sutezolid] ?
[A] -0.588

[Q] // next record CC[C@@H](CO)NCCN[C@@H](CC)CO [ethambutol] + CC(=O)NC[C@H]1CN(c2ccc(N3CCSCC3)c(F)c2)C(=O)O1 [sutezolid]
[A] -0.578

[Q] Now give it for O=[N+]([O-])c1cn2c(n1)OC[C@@H](OCc1ccc(OC(F)(F)F)cc1)C2 [pretomanid] + CC(=O)NC[C@H]1CN(c2ccc(N3CCSCC3)c(F)c2)C(=O)O1 too.
[A] -0.395

[Q] Try this compound too: COc1nc2ccc(Br)cc2cc1[C@@H](c1ccccc1)[C@@](O)(CCN(C)C)c1cccc2ccccc12 [bedaquiline] + CC(C)=CCC/C(C)=C/CNCCNC1C2CC3CC(C2)CC1C3 [SQ109]
[A] 0.31

---

Test system: Mycobacterium tuberculosis Erdman (pMV306hsp+LuxG13)
method description: log2 fractional inhibitory concentration at 50% inhibition (log2 FIC); higher = more antagonistic
protocol conditions: growth medium: standard 7H9 OADC glycerol; time point: constant = terminal time point (4.2 d)
Please go through the items and note down their log2 fractional inhibitory concentration.
Quick one: just the number, no unit, thanks!

[Q] So what's the measured log2 fractional inhibitory concentration for this one? COc1c(N2C[C@@H]3CCCN[C@@H]3C2)c(F)cc2c(=O)c(C(=O)O)cn(C3CC3)c12 [moxifloxacin] + CC(=O)NC[C@H]1CN(c2ccc(N3CCSCC3)c(F)c2)C(=O)O1
[A] -0.0683

[Q] What do you get for CC(C)/N=c1\cc2n(-c3ccc(Cl)cc3)c3ccccc3nc-2cc1Nc1ccc(Cl)cc1 [clofazimine] + CC(C)=CCC/C(C)=C/CNCCNC1C2CC3CC(C2)CC1C3 [SQ109] ?
[A] -0.519

[Q] Do the same for O=[N+]([O-])c1cn2c(n1)OC[C@@H](OCc1ccc(OC(F)(F)F)cc1)C2 [pretomanid] + CC(=O)NC[C@H]1CN(c2ccc(N3CCSCC3)c(F)c2)C(=O)O1 please
[A] 0.0178

[Q] What about this molecule? COc1nc2ccc(Br)cc2cc1[C@@H](c1ccccc1)[C@@](O)(CCN(C)C)c1cccc2ccccc12 [bedaquiline] + CC(C)=CCC/C(C)=C/CNCCNC1C2CC3CC(C2)CC1C3 [SQ109]
[A] 0.0969

[Q] Same lookup for CC[C@@H](CO)NCCN[C@@H](CC)CO [ethambutol] + CC(C)=CCC/C(C)=C/CNCCNC1C2CC3CC(C2)CC1C3 [SQ109] , please.
[A] 0.0946

[Q] What would you report for CO[C@H]1/C=C/O[C@@]2(C)Oc3c(C)c(O)c4c(O)c(c(/C=N/N5CCN(C6CCCC6)CC5)c(O)c4c3C2=O)NC(=O)/C(C)=C\C=C\[C@H](C)[C@H](O)[C@@H](C)[C@@H](O)[C@@H](C)[C@H](OC(C)=O)[C@@H]1C [rifapentine] + CC(=O)NC[C@H]1CN(c2ccc(N3CCSCC3)c(F)c2)C(=O)O1 ?
[A] -0.00234

---

System: Mycobacterium tuberculosis Erdman (pMV306hsp+LuxG13)
method description: AUC25, normalised area under the dose-response curve up to IC25 (normalised AUC (unitless)); higher = more potent
protocol conditions: growth medium: valerate 0.1%; time point: terminal time point
measured endpoint: AUC25

[Q] Which AUC25 reading was recorded for the molecule CO[C@H]1/C=C/O[C@@]2(C)Oc3c(C)c(O)c4c(O)c(c(/C=N/N5CCN(C)CC5)c(O)c4c3C2=O)NC(=O)/C(C)=C\C=C\[C@H](C)[C@H](O)[C@@H](C)[C@@H](O)[C@@H](C)[C@H](OC(C)=O)[C@@H]1C [rifampicin] + CC(C)=CCC/C(C)=C/CNCCNC1C2CC3CC(C2)CC1C3 [SQ109] ?
[A] 0.0271

[Q] Moving on to COc1c(N2C[C@@H]3CCCN[C@@H]3C2)c(F)cc2c(=O)c(C(=O)O)cn(C3CC3)c12 [moxifloxacin] + CC(=O)NC[C@H]1CN(c2ccc(N3CCSCC3)c(F)c2)C(=O)O1 [sutezolid]
[A] 0.0564

[Q] What would you report for CO[C@H]1/C=C/O[C@@]2(C)Oc3c(C)c(O)c4c(O)c(c(/C=N/N5CCN(C)CC5)c(O)c4c3C2=O)NC(=O)/C(C)=C\C=C\[C@H](C)[C@H](O)[C@@H](C)[C@@H](O)[C@@H](C)[C@H](OC(C)=O)[C@@H]1C [rifampicin] + CC(=O)NC[C@H]1CN(c2ccc(N3CCSCC3)c(F)c2)C(=O)O1 [sutezolid] ?
[A] 0.0701

---

Test system: Mycobacterium tuberculosis Erdman (pMV306hsp+LuxG13)
method description: GRinf, normalised growth-rate inhibition at infinite dose (GR value (unitless, negative = killing)); higher = less potent
protocol conditions: growth medium: acidic pH 5.7, glycerol; time point: terminal time point
Assign GRinf to each entry below.
The response must contain the number and no unit.

[Q] Form field: reported GRinf of COc1nc2ccc(Br)cc2cc1[C@@H](c1ccccc1)[C@@](O)(CCN(C)C)c1cccc2ccccc12 [bedaquiline] + CC(=O)NC[C@H]1CN(c2ccc(N3CCSCC3)c(F)c2)C(=O)O1
[A] -0.241

[Q] Check O=[N+]([O-])c1cn2c(n1)OC[C@@H](OCc1ccc(OC(F)(F)F)cc1)C2 [pretomanid] + CC(=O)NC[C@H]1CN(c2ccc(N3CCSCC3)c(F)c2)C(=O)O1 too.
[A] -0.346

[Q] Queued: CC(C)/N=c1\cc2n(-c3ccc(Cl)cc3)c3ccccc3nc-2cc1Nc1ccc(Cl)cc1 [clofazimine] + CC(=O)NC[C@H]1CN(c2ccc(N3CCSCC3)c(F)c2)C(=O)O1
[A] -0.188

[Q] Then this compound: COc1c(N2C[C@@H]3CCCN[C@@H]3C2)c(F)cc2c(=O)c(C(=O)O)cn(C3CC3)c12 [moxifloxacin] + CC(=O)NC[C@H]1CN(c2ccc(N3CCSCC3)c(F)c2)C(=O)O1
[A] -0.27
